Values compiled from patent US7592345B2.

Target: recombinant human NK3 receptor (Homo sapiens)
Assay: [3H]SR142801 competition binding assay
Settings: [3H]SR142801, membranes from HEK293 cells transiently expressing recombinant human NK3 receptor; read-out: hNK3 Ki
Answer each item with its documented Ki.
Respond with the bare value in nM.

Query CN(Cc1cccc(F)c1)C(=O)C(CCN1CCN(S(C)(=O)=O)CC1)c1ccc(Cl)c(Cl)c1 (stereo not shown) on recombinant human NK3 receptor (Homo sapiens); Ki returned: 388

Query C[C@H]1CN(CCC(C)(C(=O)N(C)Cc2ccc(Cl)c(Cl)c2)c2ccc(Cl)c(Cl)c2)CCN1S(C)(=O)=O (stereo partly shown) on recombinant human NK3 receptor (Homo sapiens); Ki returned: 12.5

Query C[C@H]1CN(CCC(C)(C(=O)N(C)Cc2cccc(C(F)(F)F)c2)c2ccc(Cl)c(Cl)c2)CCN1S(C)(=O)=O (stereo partly shown) on recombinant human NK3 receptor (Homo sapiens); Ki returned: 52

Query C[C@H]1CN(CCC(C)(C(=O)N(C)Cc2ccccc2Cl)c2ccc(Cl)c(Cl)c2)CCN1S(C)(=O)=O (stereo partly shown) on recombinant human NK3 receptor (Homo sapiens); Ki returned: 168

====

Molecular target: recombinant human NK3 receptor (Homo sapiens, UniProt P29371)
Experiment: [3H]SR142801 competition binding assay
Settings: [3H]SR142801, membranes from HEK293 cells transiently expressing recombinant human NK3 receptor; read-out: hNK3 Ki
Answer each item with its documented pKi.
// scale note: pKi = -log10(conc_M); give the bare number

// COc1ccc(CN(C)C(=O)C(CCN2CCN(S(C)(=O)=O)CC2)c2ccc(Cl)c(Cl)c2)cc1F (stereo not shown) : pKi value = 6.16

// C[C@@H]1CN(CCC(C)(C(=O)NCc2ccc(Cl)c(C(F)(F)F)c2)c2ccc(Cl)c(Cl)c2)CCN1S(C)(=O)=O (stereo partly shown) : pKi value = 7.76

// CN(Cc1ccc(Cl)cc1)C(=O)C(C)(CCN1CCN(S(C)(=O)=O)CC1)c1ccc(Cl)c(Cl)c1 (stereo not shown) : pKi value = 7.18

// CC(CCN1CCCN(S(C)(=O)=O)CC1)(C(=O)NCc1cccc(OC(F)F)c1)c1ccc(Cl)c(Cl)c1 (stereo not shown) : pKi value = 6.74

// CC(CCN1CCN(S(C)(=O)=O)CC1)(C(=O)NCc1ccc(C#N)cc1)c1ccc(Cl)c(Cl)c1 (stereo not shown) : pKi value = 6.36

// CN(Cc1cccc(Cl)c1)C(=O)C(C)(CCN1CCCN(S(C)(=O)=O)CC1)c1ccc(Cl)c(Cl)c1 (stereo not shown) : pKi value = 7.38

// C[C@@H]1CN(CCC(C)(C(=O)NCc2ccc(N(C)C)cc2)c2ccc(Cl)c(Cl)c2)CCN1S(C)(=O)=O (stereo partly shown) : pKi value = 6.31

====

Answer each item with its documented Ki.
Biological target: recombinant human NK3 receptor (Homo sapiens, UniProt P29371)
Sequence (P29371 1-465): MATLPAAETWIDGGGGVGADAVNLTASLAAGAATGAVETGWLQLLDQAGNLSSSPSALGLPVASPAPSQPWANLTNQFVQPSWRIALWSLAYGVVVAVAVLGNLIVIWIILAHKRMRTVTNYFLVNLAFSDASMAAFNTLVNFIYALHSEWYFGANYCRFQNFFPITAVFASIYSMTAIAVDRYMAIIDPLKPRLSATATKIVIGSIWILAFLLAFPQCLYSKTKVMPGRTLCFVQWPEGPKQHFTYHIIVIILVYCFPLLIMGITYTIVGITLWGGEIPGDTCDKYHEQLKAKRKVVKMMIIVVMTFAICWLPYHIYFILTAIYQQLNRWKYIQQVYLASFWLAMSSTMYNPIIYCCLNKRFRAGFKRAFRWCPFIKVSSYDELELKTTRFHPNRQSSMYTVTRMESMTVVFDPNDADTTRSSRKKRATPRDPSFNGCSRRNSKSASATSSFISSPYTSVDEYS
Test: [3H]SR142801 competition binding assay
Conditions: [3H]SR142801, membranes from HEK293 cells transiently expressing recombinant human NK3 receptor; read-out: hNK3 Ki
Respond with the bare value in nM.

// CC(CCN1CCN(S(C)(=O)=O)CC1)(C(=O)N[C@H](CO)c1ccc(Cl)cc1)c1ccc(Cl)c(Cl)c1 (some centres unmarked) [Example 131] : Ki value = 186

// C[C@H]1CN(CCC(C)(C(=O)NCc2ccc(C(F)(F)F)cc2)c2ccc(Cl)c(Cl)c2)CCN1S(C)(=O)=O (some centres unmarked) [Example 75] : Ki value = 68.1

// C[C@H]1CN(CCC(C)(C(=O)N(C)Cc2ccc(-c3ccncc3)cc2)c2ccc(Cl)c(Cl)c2)CCN1S(C)(=O)=O (some centres unmarked) [Example 61] : Ki value = 247

// CC(CCN1CCCN(S(C)(=O)=O)CC1)(C(=O)NCc1ccc(C#N)cc1)c1ccc(Cl)c(Cl)c1 (centres unmarked) [Example 124] : Ki value = 107

// CC(CCN1CCN(S(C)(=O)=O)CC1)(C(=O)NCc1ccc(OC(F)F)cc1)c1ccc(Cl)c(Cl)c1 (centres unmarked) [Example 13] : Ki value = 326

// C[C@@H]1CN(CCC(C)(C(=O)N(C)Cc2ccc(Cl)cc2)c2ccc(Cl)c(Cl)c2)CCN1S(C)(=O)=O (some centres unmarked) [Example 56] : Ki value = 26.5

// C[C@@H]1CN(CCC(C)(C(=O)NCc2ccc(Cl)c(Cl)c2)c2ccc(Cl)c(Cl)c2)CCN1S(C)(=O)=O (some centres unmarked) [Example 42] : Ki value = 5.7

// C[C@H]1CN(CCC(C)(C(=O)NCc2cccc(OC(F)F)c2)c2ccc(Cl)c(Cl)c2)CCN1S(C)(=O)=O (some centres unmarked) [Example 73] : Ki value = 300

// CC(CCN1CCN(S(C)(=O)=O)CC1)(C(=O)NCc1ccc(Cl)cc1)c1ccc(Cl)c(Cl)c1 (centres unmarked) [Example 29] : Ki value = 98.4

// COc1ccc(C(NC(=O)C(C)(CCN2CCN(S(C)(=O)=O)[C@@H](C)C2)c2ccc(Cl)c(Cl)c2)C2CC2)cc1 (some centres unmarked) [Example 63] : Ki value = 65.7

// COc1cc(CN(C)C(=O)C(C)(CCN2CCCN(S(C)(=O)=O)CC2)c2ccc(Cl)c(Cl)c2)ccc1OC(F)F (centres unmarked) [Example 108] : Ki value = 89.5

// C[C@@H]1CN(CCC(C)(C(=O)N(C)Cc2ccc(Cl)c(Cl)c2)c2ccc(Cl)c(Cl)c2)CCN1S(C)(=O)=O (some centres unmarked) [Example 41] : Ki value = 13.3

// COc1ccc(C(NC(=O)C(C)(CCN2CCCN(S(C)(=O)=O)CC2)c2ccc(Cl)c(Cl)c2)C2CC2)cc1 (centres unmarked) [Example 105] : Ki value = 134

// C[C@H]1CN(CCC(C)(C(=O)NCc2ccc(Cl)c(Cl)c2)c2ccc(Cl)c(Cl)c2)CCN1S(C)(=O)=O (some centres unmarked) [Example 72] : Ki value = 42.9
